Target: T1, His-tagged human CD38 (ACRO Biosystems CD8-H5224) (human, UniProt P28907 43-300)
T1 construct: bought protein; used for ELISA coating and as SPR analyte; not shown: His tag
Assay: ELISA, 1 ug/ml scFv-Fc, coated His-tagged CD38
Value Type: ELISA signal

Query :: Dear colleague, I am looking for the recorded ELISA signal of the following binder: 40769p2.2.D3 scFv-Fc (scFv, V domains shown, scFv-Fc) VH: EVQLLESGGGLIQPGGSLRLSCTASGFDFSSYGMHWVRQAPGKGLEWVGIISDSGGTTYYADSVKGRFTISRDNSKNTLYLQMNSLRAEDTALYYCASYIMDVWGQGITVTVSS VL: QSVLTQPPSASGTPGQRVTISCSGSNSNVGVNSVYWYQQLPGTAPKLLIYGSGRRPSGVPDRFSVSKSGTSASLAISGLQSEDEADYYCAAWDGGLNAWVFGGGTKLTVL
Result :: 1.48

Query :: Another binder to check: 40769p2.2.A9 scFv-Fc (scFv, V domains shown, scFv-Fc) VH: EVQLLESGGGLVQPGGSLRLSCTASGITFSRFNMFWVRQAPGKGLEFVASIRDDGSWTYYADSVKGQFTISRDNSKNTLYLQMNSLRAEDTAVYYCAKDYNSKDFIYHYVMDVWGQGTTVTVSS VL: QSVLTQPPSASGTPGQRVTISCSGRNSNIGNNVVNWYQQLPGTAPKLLIYRNQERPSGVPDRFSGSKSGTSASLAISGLQSEDEADYYCSTWDDSLNGWVFGGGTKLTVL
Result :: 1.55

Query :: Another binder to check: 40769p2.2.E12 scFv-Fc (scFv, V domains shown, scFv-Fc) VH: EVQLLESGGGLIQPGGSLRLSCTASGFDFSSYGMHWVRQAPGKGLEWVGIISDTGGTTYYGDSVKGRFTISRDNSKSTLYLQMNSLRAEDTALYYCASYIMDVWGQGTTVTVSS VL: QSVLTQPPSASGTPGQRVTISCSGSNSNVGDNAVYWYQQPPGTAPKLLFYGTNRRPSGVPDRFSGSKSGTSASLAISGLQSEDEADYYCAAWDDSLNAWVFGGGTKLTVL
Result :: 1.67

Query :: Another binder to check: 40769p2.2.D9 scFv-Fc (scFv, V domains shown, scFv-Fc) VH: EVQLLESGGGLVQPGGSLRLSCAGSGFTFSDYWMSWVRQAPGKGLEWVSTISITAGIIYYADSVKGRFTISRDNSKNTLYLQMNSLRAEDTAVYYCAKDNWNDYYGMDVWGQGTTVTVSS VL: QSVLTQPPSASGTPGQRVTVSCSGSRSNIRDNYVYWYQQVPGTAPKLLIYKDDQRPSGVPDRFSGSKSGTSASLVISGLQSEDEADYYCATWDGSLNARVFGGGTKLTVL
Result :: 1.51
